Provide the recorded inhibition at 10 µM for the entries that follow.
# measured-on: human GPR84 receptor (Homo sapiens)
# Construct: host or cells: HEK293, transient transfection
# Sequence (Q9NQS5 whole entry): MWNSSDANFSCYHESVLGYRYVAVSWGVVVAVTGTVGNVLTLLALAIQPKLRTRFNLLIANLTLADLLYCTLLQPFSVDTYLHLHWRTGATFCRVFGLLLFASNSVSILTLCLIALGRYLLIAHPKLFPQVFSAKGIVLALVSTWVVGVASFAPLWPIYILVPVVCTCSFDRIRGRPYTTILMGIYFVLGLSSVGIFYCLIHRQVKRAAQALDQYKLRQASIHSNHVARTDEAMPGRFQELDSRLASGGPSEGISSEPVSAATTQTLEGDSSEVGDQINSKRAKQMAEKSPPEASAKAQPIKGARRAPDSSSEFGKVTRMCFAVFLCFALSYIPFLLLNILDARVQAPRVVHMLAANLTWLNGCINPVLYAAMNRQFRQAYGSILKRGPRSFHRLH
# protocol-text: Gαi biosensor BRET assay in HEK293 cells (antagonism of ZQ-16)
# Type: cell-based
# assay-setup: HEK293, single concentration 10 μM (designated F)
# Protocol: Background—The following assays can be used for determination of GPR84 activation in living HEK293 cells. […] Bioluminescence Resonance Energy Transfer (BRET) Measurement—HEK293 cells were transfected with GPR84-Rluc8 and rGFP-FYVE for the EEs trafficking biosensor or with GPR84, Gαi2-Rluc8, GFP10-Gγ2, and Gβ1 for the Gαi biosensor. […] The BRET signal was calculated as the ratio of light emitted by acceptor (GFP10, rGFP) over the light emitted by donor (Rluc8). […]

Example compounds with recorded inhibition at 10 µM:
Q: Can you share its inhibition at 10 µM? I mean this compound: CC1(C)COC(Cn2cc(-c3c(Cl)cc(C#CC4CC4)c[n+]3[O-])nn2)OC1 [Compound I-817]
A: > 75%

Q: Item COC(=O)N1CCOCC1Cn1cc(-c2ccc(C#CC3CC3)cc2C)nn1 (stereo not drawn) [Compound I-106] has what recorded inhibition at 10 µM?
A: ≤ 25%

Batch of 3 compounds: report inhibition at 10 µM for each.
1. Cc1cc(C#CC2CC2)cnc1-c1cn(CC2OCC(C)(C)O2)nn1 (stereo not drawn) [Compound I-601]
2. CN(C)c1cc(C#CCNc2ccccc2)ccc1-c1cn(CC2CC(C)(C)CO2)nn1 (stereo not drawn) [Compound I-460]
3. Cc1cc(C#CCNc2ccccc2)ccc1-c1cn(CCOc2ccccn2)nn1 [Compound I-135]

A:
1: ≤ 25%; 2: > 75%; 3: ≤ 25%

Need inhibition at 10 µM for each of these compounds.
1. CCn1c(C#CC2CC2)cnc1-c1cn(CC2CCCCO2)nn1 (stereo not drawn) [Compound I-285]
2. Cc1cc(N2CCCC23CN(C)C3)ccc1-c1cn(CC2CCCCO2)nn1 (stereo not drawn) [Compound I-151]
3. Cc1cc(N2CCN(c3ccncc3)CC2)ccc1-c1cn(CC2CCCCO2)nn1 (stereo not drawn) [Compound I-563]
4. CC1(C)CN(c2ccc(-c3cn(CC4CCCCO4)nn3)c(Cl)c2)C1 (stereo not drawn) [Compound I-254]

A:
> 75%
≤ 25%
≤ 25%
25 to 50%

* * *

Record form. Attribute: IC50. Fill in for each entry.
# System: neutrophils
# protocol-text: Neutrophil migration assay (embelin as chemotactic agent, ATPlite readout)
# Format: cell-based
# assay-setup: Neutrophil; human neutrophils, embelin as chemotactic agent; read-out: Human Neutrophil migration inhibition IC50

Answered examples (8):
Q: What measured IC50 is associated with Cc1ccc(C#CC2CC2)cc1-n1nc(CC2CCCCO2)oc1=O (stereo not drawn) on neutrophils?
A: ≤ 300 nM

Q: Item: Cc1cc(C#CCNc2ccccc2)ccc1-c1cn(C[C@@H]2CCCCO2)nn1 (stereo in doubt) Test system: neutrophils Read-out: IC50 Value: ?
A: 1000 to 3000 nM

Q: State its IC50 on neutrophils: Clc1cc(C#CC2CC2)ccc1-c1cn(CC2CCCCO2)nn1 (stereo not drawn)
A: 300 to 1000 nM

Q: # returns recorded IC50 (system: neutrophils) for CCc1cc(N2CC(C)(C)C2)ccc1-c1cn(CC2OCC(C)(C)CO2)nn1
A: ≤ 300 nM

Q: Lab note: need IC50 for Cc1cc(N2CC(C)(NCc3ccccn3)C2)ccc1-c1cn(CC2CCCCO2)nn1 (stereo not drawn) on neutrophils, anyone have it?
A: ≤ 300 nM

Q: Find IC50 (neutrophils) for the entry CCc1cc(C#CCNc2ccccc2)cnc1-c1cn(CC2CC(C)(C)CO2)nn1 (stereo not drawn)
A: ≤ 300 nM

Q: Item: CN(C)c1cc(N2CC(C)(CO)C2)ccc1-c1cn(C[C@H]2CC(C)(C)CO2)nn1 (stereo in doubt) Test system: neutrophils Read-out: IC50 Value: ?
A: ≤ 300 nM

Q: Missing value: IC50, neutrophils, entry COC(c1cn(CC2CCCCO2)nn1)c1cc(C#CC2CC2)ccc1C (stereo not drawn) . Fill in?
A: ≤ 300 nM

The following compounds each have a reported value; give each one's IC50.
1. Cc1cc(C#CCNc2ccccc2)ccc1-c1cn(C[C@H]2CCCCO2)nn1
2. CC(C)Oc1cc(C#CC2CC2)cnc1-c1cn(CC2CCCCO2)nn1 (stereo not drawn)
3. Cc1cc(N2CC(C)(N(C)Cc3ccccn3)C2)ccc1-c1cn(CC2CCCCO2)nn1 (stereo not drawn)
4. CC(C)Oc1cc(C#CC2CC2)cnc1-c1cn(CC2OCC(C)(C)CO2)nn1
5. Cc1cc(N2CCN(Cc3ccccn3)CC2)ccc1-c1cn(CC2OCC(C)(C)CO2)nn1
6. CCc1cc(C#CC2CC2)ccc1-c1cn(CC2CCCCO2)nn1 (stereo not drawn)

A:
≤ 300 nM
≤ 300 nM
≤ 300 nM
≤ 300 nM
≤ 300 nM
≤ 300 nM

Q: Identify the measured IC50 of Cc1ccc(C#CC2CC2)cc1Cc1nnn(CC2CCCCO2)n1 (stereo not drawn) for neutrophils.
A: 1000 to 3000 nM
